Below: a set of entries, each annotated with reported melting point.
Reported Metric: melting point

[[record]]
molecule = "O=c1[nH]c(=O)c2cn(C3CCCC3)nc2[nH]1"
value_observed = "> 300 °C"

[[record]]
molecule = "Cc1cccc(C)c1N(CC(C)N)S(C)(=O)=O (stereo not given)"
value_observed = "106 to 109 °C"

[[record]]
molecule = "Cc1ccc(CN2CCN([C@@H](CNS(=O)(=O)c3ccc(OCc4cc(C)nc5ccccc45)cc3)C(=O)NO)CC2)cc1"
value_observed = "170 °C"

[[record]]
molecule = "CCOC(=O)/C=C/c1cn(Cc2ccc(OCc3nc(-c4ccccc4)oc3C)cc2)cc1-c1ccccc1"
value_observed = "120 to 121 °C"

[[record]]
molecule = "Cn1c(=O)n(OCc2ccccc2)c(=O)c2cc(F)c(F)cc21"
value_observed = "167 to 169 °C"

[[record]]
molecule = "CCc1nc(N)sc1-c1ccncc1"
value_observed = "209 to 211 °C"

[[record]]
molecule = "COCCc1nc2c(N)nc3ccccc3c2n1CCCNC(=O)NC1CCCCC1"
value_observed = "179 to 180 °C"

[[record]]
molecule = "O=S(=O)(c1ccccc1)N1CCC(Nc2nc(Cl)nc(N3CCCC3)n2)CC1"
value_observed = "184 to 186 °C"

[[record]]
molecule = "N#CC(NCCCO)c1ccc(F)cc1 (stereo not given)"
value_observed = "69 to 70 °C"

[[record]]
molecule = "CCC(=O)c1cccc(C(=O)Nc2ccccn2)c1"
value_observed = "128 to 129 °C"

[[record]]
molecule = "COC(=O)c1cc(C(=O)N2COCC2(C)C)c2cc(Cc3ccc(F)cc3)cnc2c1O"
value_observed = "149 to 150 °C"

[[record]]
molecule = "Clc1cnc(Oc2cccc(OCc3ccc(Cl)cc3Cl)c2)nc1"
value_observed = "110 °C"

[[record]]
molecule = "COc1ccc(-n2nc(CCC(=O)O)cc2-c2ccc(Cl)cc2)cc1"
value_observed = "126 to 128 °C"

[[record]]
molecule = "Cc1ccc(C=NNc2nsc3ccccc23)cc1"
value_observed = "294 °C"

[[record]]
molecule = "O=C(Nc1ccc(-n2nc(C(F)(F)F)cc2C(F)(F)F)cc1)c1cccc(CO)c1"
value_observed = "160 to 162 °C"

[[record]]
molecule = "CC1(C)Cc2ccccc2C1c1cncnc1SCc1cccc(F)c1 (stereo not given)"
value_observed = "60 to 62 °C"

[[record]]
molecule = "Cc1ccc(C(=O)NCCO)cc1-n1c(C)cc(OCc2ccccc2CNC(=O)Nc2cc(C(C)(C)C)nn2-c2ccc(Cl)c(O)c2)c(Cl)c1=O"
value_observed = "196 to 197 °C"

[[record]]
molecule = "CCOc1ccc2c(c1)n(C1CCCCC1)c(=O)n2S(=O)(=O)c1ccc(C(=O)Nc2ccccc2C)cc1OC"
value_observed = "179 °C"

[[record]]
molecule = "CCOC(=O)c1cn2c(ccc3ccc(OC)cc32)n1"
value_observed = "146 to 148 °C"

[[record]]
molecule = "O=C1N(Cc2ccccn2)c2ccccc2C12COc1cc3c(cc12)OCCO3 (stereo not given)"
value_observed = "144 to 146 °C"


###

Reported Metric: melting point

[[record]]
compound = "Cc1nc(C(N)=O)n(COCc2ccccc2)c1Sc1ccccc1"
value_observed = "153 to 154 °C"

[[record]]
compound = "CC1(C)O[C@H](CC#N)C[C@H](CC(=O)N(c2ccccc2)c2ccccc2)O1"
value_observed = "98 to 100 °C"

[[record]]
compound = "O=C(c1ccccc1)C(O)C1OC(n2ccc(=O)[nH]c2=O)C(O)(C(=O)c2ccccc2)C1(O)C(=O)c1ccccc1 (centres undefined)"
value_observed = "119 to 120 °C"

[[record]]
compound = "Cc1c(C(=O)Nc2ccc(OCC(C)(C)C)c(C#N)c2)cnn1C(C)(C)C"
value_observed = "143 to 144 °C"

[[record]]
compound = "CC(C)c1cc2ncccc2cc1Oc1cnc(N)nc1N"
value_observed = "207 to 208 °C"

[[record]]
compound = "CC(=O)c1ccc2c(c1)c1cc(-c3ccc(Cl)cc3Cl)c(=O)n(C)c1n2C"
value_observed = "254 to 255 °C"

[[record]]
compound = "COC(=O)C(F)(F)CC(C)C1CCC2C3CC=C4CC(OC(C)=O)CCC4(C)C3CCC12C (centres undefined)"
value_observed = "132 °C"

[[record]]
compound = "CC(C)COc1ccc(-c2nc3cccc(C(=O)O)c3s2)cc1C#N"
value_observed = "268 to 270 °C"

[[record]]
compound = "O=C(NC1CCCCC1)NS(=O)(=O)c1ccc(CCNC(=O)N2CCc3ccccc3C2=O)cc1"
value_observed = "197 to 198 °C"

[[record]]
compound = "CN=C(O)c1c(Sc2ccc(OC)cc2)c(Sc2ccc(OC)cc2)c(Sc2ccc(OC)cc2)c(Sc2ccc(OC)cc2)c1C(=O)O"
value_observed = "168 to 170 °C"

[[record]]
compound = "CCCOc1cc(CCCOc2c(CC(=O)O)cccc2OC)n(Cc2ccc(F)cc2F)n1"
value_observed = "77 to 80 °C"

[[record]]
compound = "c1ccc2c(c1)C(=NOCCN1CCOCC1)c1ccccc1C1CC21 (centres undefined)"
value_observed = "90 to 91 °C"

[[record]]
compound = "O=C(O)CC12CC3CC(CC(Cl)(C3)C1)C2"
value_observed = "182 to 184 °C"

[[record]]
compound = "CC(C)NC(=O)N1N=C(c2ccc(N)cc2)c2cc(Cl)ccc2CC1C (centres undefined)"
value_observed = "100 to 102 °C"

[[record]]
compound = "COc1ccc(C2(COC(C)=O)CCC(=O)CC2)cc1"
value_observed = "86.5 to 88 °C"

[[record]]
compound = "O=C(Cc1cc(F)cc(F)c1)Nc1cccc2nc(N[C@@H]3CCc4ccccc43)ccc12"
value_observed = "221 °C"

[[record]]
compound = "O=[N+]([O-])C(=Cc1cccs1)C1=NCCN1Cc1ccc(Cl)nc1"
value_observed = "189 to 190 °C"

[[record]]
compound = "CCN1C(=O)c2cccnc2N(CC)c2ncccc21"
value_observed = "102 to 103 °C"

[[record]]
compound = "CC1CN(c2ncc(C(=O)N(C)c3cccc(C(F)(F)F)c3)c(N)n2)C(=O)N1 (centres undefined)"
value_observed = "237 to 238 °C"


###

Below: a set of entries, each annotated with reported melting point.
Reported Metric: melting point

[[record]]
compound = "CCOc1ccc(-c2nc(-c3ccc(OC(C)=O)c(C(=O)O)c3)cs2)cc1OCC"
value_observed = "178 to 179 °C"

[[record]]
compound = "CCC(=O)OCc1c2ccccc2cc2ccccc12"
value_observed = "79 to 80 °C"

[[record]]
compound = "CC(C)(C)c1cc(C(=S)OCc2ccccc2)cc(C(C)(C)C)c1O"
value_observed = "115 to 119 °C"

[[record]]
compound = "Cc1nc2c(c3ccccc3n3nnnc23)n1CC(C)(C)O"
value_observed = "202 to 205 °C"

[[record]]
compound = "Cc1c(-c2ccncc2)oc2c1C(=O)CCC2(C)C"
value_observed = "86 to 88 °C"

[[record]]
compound = "O=c1c(=NNc2ccccc2)c(=O)n(-c2ccccc2)c2ccccc2n1CCC1C2CC3CC(C2)CC1C3 (stereo not given)"
value_observed = "130 to 131 °C"

[[record]]
compound = "N#Cc1ccc(-c2ccc(OCCCCCCC(=O)NO)cc2)cc1"
value_observed = "79 to 82 °C"

[[record]]
compound = "CN1CC(C(=O)COC(=O)c2cncc(Br)c2)CC2c3cccc4[nH]cc(c34)CC21 (stereo not given)"
value_observed = "185 to 187 °C"

[[record]]
compound = "O=C(NCC#CCN1CCCC1)N1c2ccccc2-c2noc3c2C1CCC3 (stereo not given)"
value_observed = "132 °C"

[[record]]
compound = "CCC12CCC3C4CCC(=O)C=C4CCC3C1CCC2OC(=O)CCC1CCCC1 (stereo not given)"
value_observed = "88 to 89 °C"


###

Reported Metric: melting point

[[record]]
compound = "COc1ccc2nc(NC(=O)COC(=O)c3ccccc3)sc2c1"
reported_metric = "melting point"
value_observed = "203 to 204 °C"

[[record]]
compound = "CCOC(=O)c1nc(C)n2c1CN=C(c1ccccc1Cl)c1cc([N+](=O)[O-])ccc1-2"
reported_metric = "melting point"
value_observed = "233 to 234 °C"

[[record]]
compound = "Cc1ccc(SCCC(=O)c2cc(O)c(O)c([N+](=O)[O-])c2)cc1"
reported_metric = "melting point"
value_observed = "160 to 161 °C"

[[record]]
compound = "Cc1cn([C@H]2C=C[C@@H](O)C2)c(=O)nc1N (racemic)"
reported_metric = "melting point"
value_observed = "190 to 192 °C"

[[record]]
compound = "CC(C)(CS(=O)(=O)c1ccc(Oc2ccc(Cl)cn2)cc1)C(=O)NO"
reported_metric = "melting point"
value_observed = "116 to 117 °C"

[[record]]
compound = "CS(=O)(=O)Nc1cc([C@@H](O)CNC2CCN(c3ccc(S(=O)(=O)N4CCC[C@@H]4C(=O)OCc4ccccc4)cc3)CC2)ccc1O"
reported_metric = "melting point"
value_observed = "62 to 69 °C"

[[record]]
compound = "CS(=O)(=O)Nc1cccc(C=C2c3ccccc3CCc3ccccc32)c1"
reported_metric = "melting point"
value_observed = "66.3 °C"

[[record]]
compound = "Brc1cccc2nc(N3CCNCC3)ccc12"
reported_metric = "melting point"
value_observed = "94 to 96 °C"

[[record]]
compound = "C=CCS(=O)(=O)c1ccc(N2CC=C(c3ccc(Cl)c(Cl)c3)N2)cc1"
reported_metric = "melting point"
value_observed = "198 °C"

[[record]]
compound = "CC1(C)CC(c2ccc[nH]c2=O)c2cc(C#N)ccc2O1 (stereo not given)"
reported_metric = "melting point"
value_observed = "174 to 176 °C"

[[record]]
compound = "CC(=O)n1ncc2c(O)cc(C)cc21"
reported_metric = "melting point"
value_observed = "191 to 192 °C"

[[record]]
compound = "O=C1Nc2ccccc2C(=O)N2CCCC12 (stereo not given)"
reported_metric = "melting point"
value_observed = "174 °C"

[[record]]
compound = "CN(C)c1ccc(Cn2cnc3c(-c4ccco4)ncnc32)cc1"
reported_metric = "melting point"
value_observed = "158 to 160 °C"

[[record]]
compound = "COc1ccc(-c2c3c(c(C)c4ccc(OC)cc24)C(=O)NC3=O)cc1"
reported_metric = "melting point"
value_observed = "282 to 284 °C"

[[record]]
compound = "COc1cc(Br)c([N+](=O)[O-])cc1OC"
reported_metric = "melting point"
value_observed = "120 to 122 °C"

[[record]]
compound = "CCC(=O)Nc1onc2c1c(=O)n(C)c(=O)n2C"
reported_metric = "melting point"
value_observed = "150 to 152 °C"

[[record]]
compound = "COc1ccccc1N1CCN(CNC(=O)c2cccc(C)c2)CC1"
reported_metric = "melting point"
value_observed = "139 to 142 °C"

[[record]]
compound = "O=C(Cn1cccc(NC(=O)OCc2ccccc2)c1=O)NC(Cc1ccccc1)C(=O)C(F)(F)F (stereo not given)"
reported_metric = "melting point"
value_observed = "113 to 117 °C"

[[record]]
compound = "CN1CC[C@@H](c2c(O)cc(O)c3c(=O)cc(-c4ccccc4F)oc23)[C@@H]1CO"
reported_metric = "melting point"
value_observed = "206 to 208 °C"

[[record]]
compound = "CC(C)(C)OC(=O)CCc1ccnc(-c2nc(=O)c3ccccc3s2)c1"
reported_metric = "melting point"
value_observed = "136 to 137 °C"

